System: miR-10b
Assay: Luciferase reporter assay of miR-10b inhibition, MCF7 cells
Assay type: cell-based
Settings: Homo sapiens, MCF7, 48 h, Table 3, MCF7, 10 μM compound, vs negative control (DMSO), replicate #1, read-out: n-fold increase in luciferase expression, #1
Method: To identify miR-10b inhibitors, a luciferase reporter system was designed with complementary oligonucleotides for miR-10b.This luciferase reporter would repress Renilla luciferase signal in the presence of a functional mature miR-10b. […] MCF7 cells were seeded 24 h prior to transfection in 96 well plates (2.0×10^4 cells/well). […] The ratio of Renilla to firefly luciferase expression was calculated for each of the triplicates.
Exercise: state measured fold induction at 10 µM for each of the compounds provided.
Keep the answer to the number alone.

Lab note: Cc1ccc(F)c(NC(=O)Nc2ccc(-c3cccc4[nH]nc(N)c34)cc2)c1 [Example 10, reference compound] gave fold induction at 10 µM of 2.74

For Cc1ccc(F)c(NC(=O)Nc2ccc(-c3cnc(N)nc3)cc2)c1 the compound record lists fold induction at 10 µM as 1.99

GET /value?item= Cc1ccc(F)c(NC(=O)Nc2ccc(-c3cccc4[nH]ncc34)cc2)c1 &field=fold induction at 10 µM returns 0.238

According to the records, this compound Cc1ccc(F)c(NC(=O)Nc2ccc(-c3cncnc3)cc2)c1 displays fold induction at 10 µM of 2.75

###

test system: miR-10b; assay: Luciferase reporter assay of miR-10b inhibition, MCF7 cells; format: cell-based; conditions: Homo sapiens, MCF7, 48 h, Table 6, MCF7, second biological replicant, 10 μM compound, mean of triplicate, read-out: n-fold increase in luciferase expression, Mean
Task for the reader: assign each of the following compounds its reported fold induction at 10 µM.

fold induction at 10 µM reading for Cc1ccc(F)c(NC(=O)Nc2ccc(-c3ccccn3)cc2)c1 : 1.24

The measured fold induction at 10 µM associated with Nc1n[nH]c2cccc(-c3ccc(NC(=O)Nc4ccncc4)cc3)c12 reads 1.29

Entry Cc1ccc(F)c(NC(=O)Nc2ccc(-c3cncnc3)cc2)c1 — recorded fold induction at 10 µM = 2.44

Kindly note the recorded fold induction at 10 µM for Cc1ccc(F)c(NC(=O)Nc2ccc(-c3cnc(N)nc3)cc2)c1 , which is 2.12

// recorded fold induction at 10 µM for Cc1ccc(F)c(NC(=O)Nc2ccc(-c3cccc4[nH]ncc34)cc2)c1 : 0.18

// fold induction at 10 µM value for Cc1ccc(F)c(NC(=O)Nc2ccc(-c3cccc4[nH]nc(N)c34)cc2)c1 [Example 10, reference compound] : 17.9

The recorded fold induction at 10 µM for Cc1ccc(F)c(NC(=O)Nc2ccc(-c3cccc4cn[nH]c34)cc2)c1 is 2.54

Kindly note the recorded fold induction at 10 µM for Cc1ccc(F)c(NC(=O)Nc2ccc(-c3cccc4c3NC(=O)C4)cc2)c1 , which is 1.25

###

Can you tell me CLint scaled at 1 μM for the items I'm about to list?
test: Microsomal stability assay, human; type: in vitro ADME; conditions: pH 7.4; human liver microsomes; 1 μM test compound; unit printed in b356 only
Just the number please, in mL/min/kg, no unit attached.

Cc1ccc(F)c(NC(=O)Nc2ccc(-c3cccc4[nH]nc(N)c34)cc2)c1 [Example 10, reference compound] has a reported CLint scaled at 1 μM of 8.8

// CLint scaled at 1 μM value for Cc1ccc(F)c(NC(=O)Nc2ccc(-c3cccc4cn[nH]c34)cc2)c1 : 14.9
